assay: In vivo pharmacokinetics and brain penetration in mice; design: species or system mouse; conditions: male, C57BL/6, mouse, brain, ip, 20 mg/kg, mice; 20 mg/kg intraperitoneal; 0.25 hour; read-out: Mean Ratio (brain to plasma)
property-measured: Kp at 0.25 h
Answers are plain numbers.

What value of Kp at 0.25 h has been reported for the following compound? COc1ccc(OCC(c2ccc(OC)cc2)N2Cc3ccccc3C2=O)cc1 (racemic)
1.74

----------
assay: In vivo pharmacokinetics and brain penetration in mice; design: species or system mouse; conditions: male, C57BL/6, mouse, plasma, ip, 20 mg/kg, mice; 20 mg/kg intraperitoneal; 8 hour; read-out: Plasma Concentration
property-measured: concentration at 8 h (nM)
Give bare numbers, in nM.

What value of concentration at 8 h has been reported for the following compound? COc1ccc(OCC(c2ccc(OC)cc2)N2Cc3ccccc3C2=O)cc1 (racemic)
50

----------
assay: In vivo pharmacokinetics and brain penetration in mice; parameters: species or system mouse; conditions: mouse, ip; plasma; male C57BL/6 mice; 20 mg/kg intraperitoneal
property-measured: half-life (min)
One number for each entry, in min.

What value of half-life has been reported for the following compound? COc1ccc(OCC(c2ccc(OC)cc2)N2Cc3ccccc3C2=O)cc1 (racemic)
94.2

----------
target: rat GluN1-4a/GluN3B receptors (Rattus norvegicus, UniProt P35439+Q8VHN2); construct: Human GluN3A (NP_597702.2) and rat GluN3B (NP_579842.2) were synthesized and subcloned into SP6 plasmids; test: Two-electrode voltage-clamp recordings of GluN1-4a/GluN3B receptors in the presence of CGP-78608 (Xenopus oocytes); settings: 0.5 μM CGP-78608
Sequence (Q8VHN2 25-1002, other chains not shown): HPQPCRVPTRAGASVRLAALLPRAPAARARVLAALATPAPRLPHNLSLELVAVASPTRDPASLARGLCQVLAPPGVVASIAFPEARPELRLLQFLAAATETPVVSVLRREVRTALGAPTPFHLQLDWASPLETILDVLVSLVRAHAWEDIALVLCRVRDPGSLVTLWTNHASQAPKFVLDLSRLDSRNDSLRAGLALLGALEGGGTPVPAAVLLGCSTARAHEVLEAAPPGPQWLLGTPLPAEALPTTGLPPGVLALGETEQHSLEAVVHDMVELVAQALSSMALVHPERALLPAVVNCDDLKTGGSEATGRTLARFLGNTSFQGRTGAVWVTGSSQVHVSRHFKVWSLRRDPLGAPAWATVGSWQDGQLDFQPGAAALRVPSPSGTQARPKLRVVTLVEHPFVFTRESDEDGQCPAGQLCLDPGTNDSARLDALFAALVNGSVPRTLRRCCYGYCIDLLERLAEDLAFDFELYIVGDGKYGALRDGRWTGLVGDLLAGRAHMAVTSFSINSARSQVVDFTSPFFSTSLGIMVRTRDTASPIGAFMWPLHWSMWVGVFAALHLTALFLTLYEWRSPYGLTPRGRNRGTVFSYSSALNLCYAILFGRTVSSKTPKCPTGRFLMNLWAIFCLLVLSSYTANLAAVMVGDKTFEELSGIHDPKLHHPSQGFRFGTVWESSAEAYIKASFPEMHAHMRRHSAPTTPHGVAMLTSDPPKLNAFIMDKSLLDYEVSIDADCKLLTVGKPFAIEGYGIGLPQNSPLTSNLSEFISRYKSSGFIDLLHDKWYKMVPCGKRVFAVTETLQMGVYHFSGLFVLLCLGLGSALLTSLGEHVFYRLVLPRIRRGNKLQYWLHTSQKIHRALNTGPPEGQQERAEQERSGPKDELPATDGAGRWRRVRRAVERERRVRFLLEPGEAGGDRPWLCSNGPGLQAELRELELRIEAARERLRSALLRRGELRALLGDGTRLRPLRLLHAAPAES
property-measured: pIC50
Give bare numbers, as −log10 of the molar value.

{"columns": ["compound", "pIC50"],
 "data": [
  ["COc1ccc(OCC(c2ccccc2)N2CCc3ccccc3C2=O)cc1 (stereo not drawn) [EU1180-488]", 5.46],
  ["COc1ccc(OCC(c2ccc(OC)cc2)N2CCc3ccccc3C2=O)cc1 (stereo not drawn) [EU1180-489]", 5.45]
]}

The record that follows has no pIC50 shown yet.
What value of pIC50 has been reported for the following compound? COc1ccc(OCC(c2ccccc2)N2Cc3ccccc3C2=O)cc1 (stereo not drawn) [EU1180-487]
5.19

----------
tested on: GluN1/GluN2 NMDA receptors (GluN2A, GluN2B, GluN2C, GluN2D); assay: Recombinant GluN1/GluN2 NMDA receptors in Xenopus oocytes (selectivity); assay type: cell-based, rat; conditions: 30 μM
property-measured: activity toward recombinant GluN1/GluN2 NMDA receptors (GluN2A-D)

{"columns": ["compound", "target-desc", "assay-value"],
 "data": [
  ["COc1ccc(OCC(c2ccc(OC)cc2)N2CCc3ccccc3C2=O)cc1 (centres unmarked) [EU1180-489]", "GluN1/GluN2 NMDA receptors (GluN2A, GluN2B, GluN2C, GluN2D)", "no detectable activity"],
  ["COc1ccc(OCC(c2ccc(OC)c(OC)c2)N2Cc3ccccc3C2=O)cc1 (centres unmarked) [EU1180-494]", "GluN1/GluN2 NMDA receptors (GluN2A, GluN2B, GluN2C, GluN2D)", "no detectable activity"],
  ["COc1ccc(OCC(c2ccccc2)N2Cc3ccccc3C2=O)cc1 (centres unmarked) [EU1180-487]", "GluN1/GluN2 NMDA receptors (GluN2A, GluN2B, GluN2C, GluN2D)", "no detectable activity"],
  ["COc1ccc(OCC(c2ccccc2)N2CCc3ccccc3C2=O)cc1 (centres unmarked) [EU1180-488]", "GluN1/GluN2 NMDA receptors (GluN2A, GluN2B, GluN2C, GluN2D)", "no detectable activity"]
]}

The record that follows has no activity toward recombinant GluN1/GluN2 NMDA receptors (GluN2A-D) shown yet.
What value of activity toward recombinant GluN1/GluN2 NMDA receptors (GluN2A-D) has been reported for the following compound? COc1ccc(OCC(c2ccc(OC(C)C)cc2)N2Cc3ccccc3C2=O)cc1 (centres unmarked) [EU1180-481]
no detectable activity
